Target: glycosylated human PAI-1 (active form) (human, UniProt P05121 24-402, glycosylated)
Sequence (P05121 24-402 limits assumed): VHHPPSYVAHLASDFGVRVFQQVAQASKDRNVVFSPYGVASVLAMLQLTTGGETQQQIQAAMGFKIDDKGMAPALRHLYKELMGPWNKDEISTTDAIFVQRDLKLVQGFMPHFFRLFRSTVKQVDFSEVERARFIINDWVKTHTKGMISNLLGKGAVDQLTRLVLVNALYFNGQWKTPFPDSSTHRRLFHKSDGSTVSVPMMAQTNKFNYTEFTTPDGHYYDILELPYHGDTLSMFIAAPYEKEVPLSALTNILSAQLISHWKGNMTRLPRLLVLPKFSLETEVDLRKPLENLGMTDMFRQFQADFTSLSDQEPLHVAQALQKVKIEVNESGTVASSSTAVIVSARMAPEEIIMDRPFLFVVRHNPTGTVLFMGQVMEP
Assay: cell-based or functional assay
Listing of recorded Plasminogen Activation IC50 by entry.
Numbers only here, please. The scale is nM.

Previously resolved entries follow.
A44-hv9 (antibody, V domains shown, humanized A44, HEK293; constant regions as for A44-hv1; also called LC5b x HC5b; variant 9) VH: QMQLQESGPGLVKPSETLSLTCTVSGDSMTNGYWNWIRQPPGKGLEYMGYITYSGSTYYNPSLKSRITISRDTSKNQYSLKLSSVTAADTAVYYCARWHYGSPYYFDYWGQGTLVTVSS VL: DIQMTQSPSSLSASVGDRVTITCKASQDINSYLSWLQQKPGKAPKTLIYRANRSVDGVPSRFSGSGSGQDYTFTISSLQPEDIATYYCLQYDEFPPTFGGGTKVEIK :: 1.9
A44 (antibody, mouse IgG1, V domains shown, mouse IgG1/kappa; also called mA44; A44 parental) VH: EMQLQESGPSLVKPSQTLSLTCSVTGDSMTNGYWNWIRKFPGNKLEYMGYITYSGSTYYNPSLKGRISITRNTSKNQYYLQLSSVTTEDTATYYCARWHYGSPYYFDYWGQGTTLTVSS VL: DIKMTQSPSSMYASLGERVTITCKASQDINSYLSWLQQKPGKSPKTLIYRANRSVDGVPSRFSGSGSGQDYSLTISSLEYEDMGIYYCLQYDEFPPTFGGGTKLEIKR :: 3.17

For the next question, use this binder.
Sure, the documented Plasminogen Activation IC50 for A44-hv1 (antibody, V domains shown, humanized A44, HEK293; also called LC1a x HC1a; variant 1) VH: EMTLKESGPTLVKPTQTLSLTCSVTGDSMTNGYWNWIRKFPGKALEYMGYITYSGSTYYNPSLKGRISITRNTSKNQYYLTLSSVTTVDTATYYCARWHYGSPYYFDYWGQGTTLTVSS VL: DIKMTQSPSSLSASVGDRVTITCKASQDINSYLSWLQQKPGKSPKTLIYRANRSVDGVPSRFSGSGSGQDYSLTISSLQPEDLGIYYCLQYDEFPPTFGGGTKLEIK is 3.12
